assay-info: Stability in human plasma
Type: in vitro ADME
experimental-context: 2 μM peptidomimetic, pooled human plasma, 37° C., 24 h
Non-standard residues stand in square brackets, D forms with d. Residues, ends and D or L forms follow the SMILES beside them. ξ: configuration not given here. ξBip(2'-Et-4'-OMe) = CCc1cc(OC)ccc1-c1ccc(CC(N)C(=O)O)cc1; ξNva(5-(3,5-Me2-Ph)) = Cc1cc(C)cc(CCCC(N)C(=O)O)c1; ξNva(5-(3-Cl-Ph)) = NC(CCCc1cccc(Cl)c1)C(=O)O; Ac5c = NC1(C(=O)O)CCCC1
endpoint: % degradation of peptidomimetics in 24 h when incubated with human plasma (%)
The reply should contain only the number, in %.

Problem: Please report the recorded % degradation of peptidomimetics in 24 h when incubated with human plasma for CCc1cc(OC)ccc1-c1ccc(CC(NC(=O)[C@H](CC(=O)O)NC(=O)[C@H](CO)NC(=O)[C@@H](NC(=O)[C@H](Cc2ccccc2)NC(=O)[C@@H](NC(=O)CNC(=O)C(CCC#N)NC(=O)C(C)(C)NC(=O)[C@@H](N)Cc2c[nH]cn2)[C@@H](C)O)[C@@H](C)O)C(=O)NC(CCCc2ccccc2C(F)(F)F)C(N)=O)cc1 (single isomer, unassigned) .
Solution: 70

Problem: Another compound to check: CCc1cc(OC)ccc1-c1ccc(CC(NC(=O)[C@H](CC(=O)O)NC(=O)[C@H](CO)NC(=O)[C@@H](NC(=O)[C@H](Cc2ccccc2)NC(=O)[C@@H](NC(=O)CNC(=O)C(CCC#N)NC(=O)C(C)(C)NC(=O)[C@@H](N)Cc2c[nH]cn2)[C@@H](C)O)[C@@H](C)O)C(=O)NC(CCCc2ccccc2)C(N)=O)cc1 (single isomer, unassigned)
Solution: 00

Problem: For CCc1cc(OC)ccc1-c1ccc(CC(NC(=O)[C@H](CC(=O)O)NC(=O)[C@H](CO)NC(=O)[C@@H](NC(=O)[C@H](Cc2ccccc2)NC(=O)[C@@H](NC(=O)CNC(=O)[C@H](CCC(N)=O)NC(=O)C2(NC(=O)[C@@H](N)Cc3c[nH]cn3)CC2)[C@@H](C)O)[C@@H](C)O)C(=O)NC(CCCc2ccc(F)cc2F)C(N)=O)cc1 (single isomer, unassigned) then?
Solution: 71

Problem: Same thing, different compound: CCc1cc(OC)ccc1-c1ccc(CC(NC(=O)[C@H](CC(=O)O)NC(=O)[C@H](CO)NC(=O)[C@@H](NC(=O)C(C)(Cc2ccccc2F)NC(=O)[C@@H](NC(=O)CNC(=O)[C@H](CC(C(F)(F)F)C(F)(F)F)NC(=O)C(C)(C)NC(=O)[C@@H](N)Cc2c[nH]cn2)[C@H](C)O)[C@@H](C)O)C(=O)NC(CCCc2ccccc2)C(N)=O)cc1 (some centres unmarked)
Solution: 75

Problem: Continue with CCc1cc(OC)ccc1-c1ccc(CC(NC(=O)[C@H](CC(=O)O)NC(=O)[C@H](CO)NC(=O)[C@@H](NC(=O)[C@H](Cc2ccccc2)NC(=O)[C@@H](NC(=O)CNC(=O)C(CCC#N)NC(=O)C(C)(C)NC(=O)[C@@H](N)Cc2c[nH]cn2)[C@@H](C)O)[C@@H](C)O)C(=O)NC(CCCc2ccc(F)cc2F)C(N)=O)cc1 (single isomer, unassigned)
Solution: 71

Problem: Another compound to look at: CCc1cc(OC)ccc1-c1ccc(CC(NC(=O)[C@H](CC(=O)O)NC(=O)[C@H](CO)NC(=O)[C@@H](NC(=O)C(C)(Cc2ccccc2F)NC(=O)[C@@H](NC(=O)CNC(=O)C(CCC#N)NC(=O)C(C)(C)NC(=O)[C@@H](N)Cc2c[nH]cn2)[C@H](C)O)[C@@H](C)O)C(=O)NC(CCCc2ccccc2)C(N)=O)cc1 (single isomer, unassigned)
Solution: 00

Problem: Proceed to CCc1cc(OC)ccc1-c1ccc(CC(CNC(CCCc2ccccc2)C(N)=O)NC[C@H](CC(=O)O)NC(=O)[C@H](CO)NC(=O)[C@@H](NC(=O)C(C)(Cc2ccccc2F)NC(=O)[C@@H](NC(=O)CNC(=O)[C@H](CCC(N)=O)NC(=O)C(C)(C)NC(=O)[C@@H](N)Cc2c[nH]cn2)[C@H](C)O)[C@H](C)O)cc1 (single isomer, unassigned)
Solution: 00

Problem: Quick one: CCc1cc(OC)ccc1-c1ccc(CC(NC(=O)[C@H](CC(=O)O)NC(=O)[C@H](CO)NC(=O)[C@@H](NC(=O)[C@H](Cc2ccccc2)NC(=O)[C@@H](NC(=O)CNC(=O)[C@H](CCC(N)=O)NC(=O)C2(NC(=O)[C@@H](N)Cc3c[nH]cn3)CCCC2)[C@@H](C)O)[C@@H](C)O)C(=O)NC(CCCc2cccc(Cl)c2)C(N)=O)cc1 (some centres unmarked) [compound 27] (H-H[Ac5c]QGTFTSD[ξBip(2'-Et-4'-OMe)][ξNva(5-(3-Cl-Ph))]-NH2)
Solution: 00

Problem: And then CCc1cc(OC)ccc1-c1ccc(CC(NC(=O)[C@H](CC(=O)O)NC(=O)[C@H](CO)NC(=O)[C@@H](NC(=O)[C@H](Cc2ccccc2)NC(=O)[C@@H](NC(=O)CNC(=O)C(CCC#N)NC(=O)C(C)(C)NC(=O)[C@@H](N)Cc2c[nH]cn2)[C@@H](C)O)[C@@H](C)O)C(=O)NC(CCCc2ccc(Cl)cc2C)C(N)=O)cc1 (single isomer, unassigned) , what is it?
Solution: 77

Problem: Another compound: CCc1cc(OC)ccc1-c1ccc(CC(NC(=O)[C@H](CC(=O)O)NC(=O)[C@H](CO)NC(=O)[C@@H](NC(=O)[C@H](Cc2ccccc2)NC(=O)[C@@H](NC(=O)CNC(=O)[C@H](CCC(N)=O)NC(=O)[C@H](C)NC(=O)[C@@H](N)Cc2c[nH]cn2)[C@@H](C)O)[C@@H](C)O)C(=O)NC(CCCc2cc(C)cc(C)c2)C(N)=O)cc1 (some centres unmarked) [compound 14] (H-HAQGTFTSD[ξBip(2'-Et-4'-OMe)][ξNva(5-(3,5-Me2-Ph))]-NH2)
Solution: 75

Problem: Another compound to check: CCc1cc(OC)ccc1-c1ccc(CC(CNC(CCCc2ccccc2F)C(N)=O)NC[C@H](CC(=O)O)NC(=O)[C@H](CO)NC(=O)[C@@H](NC(=O)C(C)(Cc2ccccc2F)NC(=O)[C@@H](NC(=O)CNC(=O)[C@H](CCC(N)=O)NC(=O)C(C)(C)NC(=O)[C@H](Cc2c[nH]cn2)NC(=O)OC)[C@H](C)O)[C@H](C)O)cc1 (single isomer, unassigned)
Solution: 00

---

assayed-system: Human GLP-1 receptor (Homo sapiens, UniProt P43220)
Construct: The full-length cDNA was cloned in pcDNA3.1(+); expressed in transfected cells
Sequence (P43220 24-463): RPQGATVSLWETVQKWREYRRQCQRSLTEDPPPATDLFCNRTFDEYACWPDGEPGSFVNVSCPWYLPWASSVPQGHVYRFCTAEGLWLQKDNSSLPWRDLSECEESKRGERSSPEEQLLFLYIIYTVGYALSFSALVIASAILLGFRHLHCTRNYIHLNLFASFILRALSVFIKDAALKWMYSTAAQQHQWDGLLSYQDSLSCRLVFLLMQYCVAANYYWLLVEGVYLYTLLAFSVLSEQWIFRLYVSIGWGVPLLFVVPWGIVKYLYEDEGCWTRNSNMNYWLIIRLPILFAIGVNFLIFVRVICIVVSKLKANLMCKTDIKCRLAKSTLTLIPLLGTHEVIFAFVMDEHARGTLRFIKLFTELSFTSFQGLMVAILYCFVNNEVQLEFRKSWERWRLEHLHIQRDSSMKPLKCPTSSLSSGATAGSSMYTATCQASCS
assay-info: In vitro Human GLP-1 R agonist activity (cyclic AMP determination) in CHO/human GLP1R cells
Assay type: cell-based
experimental-context: 1 μM test compound
Exercise: state measured Human GLP-1 R activity (cAMP release), % activity with respect to control for each of the compounds provided.
Entry rule: numbers only, all in %.

Problem: Fill blank: measured Human GLP-1 R activity (cAMP release), % activity with respect to control of the compound CCc1cc(OC)ccc1-c1ccc(CC(NC(=O)[C@H](CC(=O)O)NC(=O)[C@H](CO)NC(=O)[C@@H](NC(=O)[C@H](Cc2ccccc2)NC(=O)[C@@H](NC(=O)CNC(=O)C(CCC#N)NC(=O)C(C)(C)NC(=O)[C@@H](N)Cc2c[nH]cn2)[C@@H](C)O)[C@@H](C)O)C(=O)NC(CCCc2ccccc2Cl)C(N)=O)cc1 (single isomer, unassigned) is ____.
Solution: 99

Problem: Now consider CCc1cc(OC)ccc1-c1ccc(CC(C(=O)N(C)C(CCCc2ccccc2F)C(N)=O)N(C)C(=O)[C@H](CC(=O)O)N(C)C(=O)[C@H](CO)NC(=O)[C@@H](NC(=O)C(C)(Cc2ccccc2F)NC(=O)[C@@H](NC(=O)CNC(=O)C(CCC#N)NC(=O)C(C)(C)NC(=O)[C@@H](N)Cc2c[nH]cn2)[C@H](C)O)[C@H](C)O)cc1 (single isomer, unassigned) and answer again.
Solution: 99

Problem: Again, but for CCc1cc(OC)ccc1-c1ccc(CC(CNC(CCCc2ccccc2)C(N)=O)NC(=O)[C@H](CC(=O)O)NC(=O)[C@H](CO)NC(=O)[C@@H](NC(=O)C(C)(Cc2ccccc2F)NC(=O)[C@@H](NC(=O)CNC(=O)[C@H](CCC(N)=O)NC(=O)C(C)(C)NC(=O)[C@H](Cc2c[nH]cn2)NC(C)=O)[C@H](C)O)[C@H](C)O)cc1 (single isomer, unassigned)
Solution: 99

Problem: Try this compound next: CCc1cc(OC)ccc1-c1ccc(CC(NC(=O)[C@H](CC(=O)O)NC(=O)[C@H](CO)NC(=O)[C@@H](NC(=O)[C@H](Cc2ccccc2)NC(=O)[C@@H](NC(=O)CNC(=O)C(CCC#N)NC(=O)C(C)(C)NC(=O)[C@@H](N)Cc2c[nH]cn2)[C@@H](C)O)[C@@H](C)O)C(=O)NC(CCCc2ccc(F)cc2C(F)(F)F)C(N)=O)cc1 (single isomer, unassigned)
Solution: 99

Problem: What about CCc1cc(OC)ccc1-c1ccc(CC(C(=O)N(C)C(CCCc2ccccc2F)C(N)=O)N(C)C(=O)[C@H](CC(=O)O)NC(=O)[C@H](CO)NC(=O)[C@@H](NC(=O)C(C)(Cc2ccccc2F)NC(=O)[C@@H](NC(=O)CNC(=O)C(CCC#N)NC(=O)C(C)(C)NC(=O)[C@@H](N)Cc2c[nH]cn2)[C@H](C)O)[C@H](C)O)cc1 (single isomer, unassigned) ?
Solution: 99

Problem: Then what about the compound CCc1cc(OC)ccc1-c1ccc(CC(NC(=S)[C@H](CC(=O)O)NC(=O)[C@H](CO)NC(=O)[C@@H](NC(=O)C(C)(Cc2ccccc2F)NC(=O)[C@@H](NC(=O)CNC(=O)C(CCC#N)NC(=O)C(C)(C)NC(=O)[C@@H](N)Cc2c[nH]cn2)[C@H](C)O)[C@H](C)O)C(=S)NC(CCCc2ccccc2)C(N)=O)cc1 (single isomer, unassigned) ?
Solution: 95

Problem: // query: CCc1cc(OC)ccc1-c1ccc(CC(NC(=O)[C@H](CC(=O)O)NC(=O)[C@H](CO)NC(=O)[C@@H](NC(=O)[C@H](Cc2ccccc2)NC(=O)[C@@H](NC(=O)CNC(=O)[C@H](CCC(N)=O)NC(=O)C(C)(C)NC(=O)[C@@H](N)Cc2c[nH]cn2)[C@@H](C)O)[C@@H](C)O)C(=O)NC(CCCc2ccc(OC)cc2Cl)C(N)=O)cc1 (single isomer, unassigned)
Solution: 96

Problem: What do you have for CCc1cc(OC)ccc1-c1ccc(CC(NC(=O)[C@H](CC(=O)O)NC(=O)[C@H](CO)NC(=O)[C@@H](NC(=O)[C@H](Cc2ccccc2)NC(=O)[C@@H](NC(=O)CNC(=O)C(CCC#N)NC(=O)C(C)(C)NC(=O)[C@@H](N)Cc2c[nH]cn2)[C@@H](C)O)[C@@H](C)O)C(=O)NC(CCCc2ccccc2C(F)(F)F)C(N)=O)cc1 (single isomer, unassigned) ?
Solution: 99

Problem: Do the same for CCc1cc(OC)ccc1-c1ccc(CC(NC(=O)[C@H](CC(=O)O)NC(=O)[C@H](CO)NC(=O)[C@@H](NC(=O)C(C)(Cc2ccccc2F)NC(=O)[C@@H](NC(=O)CNC(=O)C(CCC#N)NC(=O)C(C)(C)NC(=O)[C@@H](N)Cc2c[nH]cn2)[C@H](C)O)[C@@H](C)O)C(=O)NC(CCCc2ccccc2F)C(N)=O)cc1 (single isomer, unassigned) please
Solution: 96

Problem: Also CCc1cc(OC)ccc1-c1ccc(CC(NC(=S)[C@H](CC(=O)O)NC(=O)[C@H](CO)NC(=O)[C@@H](NC(=O)C(C)(Cc2ccccc2F)NC(=O)[C@@H](NC(=O)CNC(=O)C(CCC#N)NC(=O)C(C)(C)NC(=O)[C@@H](N)Cc2c[nH]cn2)[C@H](C)O)[C@H](C)O)C(=S)NC(CCCc2ccccc2F)C(N)=O)cc1 (single isomer, unassigned) ?
Solution: 96

Problem: Okay, and CCc1cc(OC)ccc1-c1ccc(CC(NC(=O)[C@H](CC(=O)O)NC(=O)[C@H](CO)NC(=O)[C@@H](NC(=O)C(C)(Cc2ccccc2F)NC(=O)[C@@H](NC(=O)CNC(=O)C(CCC#N)NC(=O)C(C)(C)NC(=O)[C@H](Cc2c[nH]cn2)NC(C)=O)[C@@H](C)O)[C@@H](C)O)C(=O)NC(CCCc2ccccc2)C(N)=O)cc1 (single isomer, unassigned) ?
Solution: 99
